Target: hMC4-R (Homo sapiens (Human), UniProt P32245)
Sequence (P32245 whole entry): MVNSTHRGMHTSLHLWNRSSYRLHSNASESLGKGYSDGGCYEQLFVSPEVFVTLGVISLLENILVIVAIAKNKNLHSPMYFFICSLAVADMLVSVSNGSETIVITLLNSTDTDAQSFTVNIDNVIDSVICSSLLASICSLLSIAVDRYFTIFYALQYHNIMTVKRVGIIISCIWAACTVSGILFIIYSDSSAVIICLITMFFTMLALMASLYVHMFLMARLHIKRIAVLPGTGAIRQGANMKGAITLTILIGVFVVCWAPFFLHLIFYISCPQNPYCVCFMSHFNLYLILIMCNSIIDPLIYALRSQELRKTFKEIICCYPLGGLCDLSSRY
Experiment: High and low density hMC4-R functional assay (cAMP, HEK293-T-REx-MC4-R cells)
Assay type: cell-based
Settings: 0.1 ng/mL Doxycycline (low density hMC4-R system); NDP-α-MSH = 100%; read-out: Intrinsic Activity (%)

chemical.string: CC(=O)N[C@@H](CCCNC(=N)N)C(=O)N[C@H]1CCC(=O)NCCC[C@@H](C(N)=O)NC(=O)[C@H](Cc2c[nH]c3ccccc23)NC(=O)[C@H](CCCNC(=N)N)NC(=O)[C@@H](Cc2ccccc2C)NC(=O)[C@H](CCC(N)=O)NC1=O
value.unit: %
Emax: 84
--
chemical.string: CC(=O)N[C@@H](CCCNC(=N)N)C(=O)N[C@H]1CCC(=O)NCCC[C@@H](C(N)=O)NC(=O)[C@H](Cc2c[nH]c3ccccc23)NC(=O)[C@H](CCCNC(=N)N)NC(=O)[C@@H](Cc2ccccc2C(F)(F)F)NC(=O)[C@H](CC(N)=O)NC1=O
value.unit: %
Emax: 77
--
chemical.string: CC(=O)N[C@@H](CCCNC(=N)N)C(=O)N[C@H]1CCC(=O)NCCC[C@@H](C(N)=O)NC(=O)[C@H](Cc2c[nH]c3ccccc23)NC(=O)[C@H](CCCNC(=N)N)NC(=O)[C@@H](Cc2ccc(C#N)cc2)NC(=O)[C@H](CC(N)=O)NC1=O
value.unit: %
Emax: 43
--
chemical.string: CC(=O)N[C@@H](CCCNC(=N)N)C(=O)N[C@H]1CCCNC(=O)CC[C@@H](C(N)=O)NC(=O)[C@H](Cc2c[nH]c3ccccc23)NC(=O)[C@H](CCCNC(=N)N)NC(=O)[C@@H](Cc2ccccc2Cl)NC(=O)[C@H](CC(N)=O)NC1=O
value.unit: %
Emax: 80

###

Target: hMC4-R (Homo sapiens (Human), UniProt P32245)
Assay: High and low density hMC4-R functional assay (cAMP, HEK293-T-REx-MC4-R cells)
Format: cell-based
Conditions: 0.1 ng/mL Doxycycline (low density hMC4-R system); NDP-α-MSH = 100%; read-out: Intrinsic Activity (%)
Quick reference: Emax of the listed items.
metric: Emax (%)

chemical.string: CC(=O)N[C@@H](CCCNC(=N)N)C(=O)N[C@H]1CCC(=O)NCCC[C@@H](C(N)=O)NC(=O)[C@H](Cc2c[nH]c3ccccc23)NC(=O)[C@H](CCCNC(=N)N)NC(=O)[C@@H](Cc2ccccc2C(F)(F)F)NC(=O)[C@H](CCC(N)=O)NC1=O
quantitative.readout: 73
//
chemical.string: CC(=O)N[C@H](CCCNC(=N)N)C(=O)N[C@H]1CCCNC(=O)CC[C@@H](C(N)=O)NC(=O)[C@H](Cc2c[nH]c3ccccc23)NC(=O)[C@H](CCCNC(=N)N)NC(=O)[C@@H](Cc2ccc(F)cc2)NC(=O)[C@H](Cc2c[nH]cn2)NC1=O
quantitative.readout: 89
//
chemical.string: CC(=O)N[C@@H](CCCNC(=N)N)C(=O)N[C@H]1CCC(=O)NCCC[C@@H](C(N)=O)NC(=O)[C@H](Cc2c[nH]c3ccccc23)NC(=O)[C@H](CCCNC(=N)N)NC(=O)[C@@H](Cc2ccccc2Cl)NC(=O)[C@@H]2CCCN2C1=O
quantitative.readout: 15
//
chemical.string: CC(=O)N[C@@H](CCCNC(=N)N)C(=O)N[C@H]1CCC(=O)NCCC[C@@H](C(N)=O)NC(=O)[C@H](Cc2c[nH]c3ccccc23)NC(=O)[C@H](CCCNC(=N)N)NC(=O)[C@@H](Cc2ccc(C#N)cc2)NC(=O)[C@@H]2C[C@@H](O)CN2C1=O
quantitative.readout: 8
